system_tested: UniProt Q01650
test_protocol: Inhibition of amino acid uptake in human LAT1 stably expressing cell line
experimental_conditions: eight concentrations 0.1-1000 μM
measured_metric: pIC50
Worth noting: pIC50 values are minus log10 of concentrations stated in mol/L.

Query: Could you share what pIC50 was measured for NC(Cc1cc(OCCF)ccc1I)C(=O)O (stereo not shown) , tested on UniProt Q01650?
Response: 5.04

====

system_tested: human LAT2 (Homo sapiens, UniProt Q9UHI5)
Sequence (Q9UHI5 1-535): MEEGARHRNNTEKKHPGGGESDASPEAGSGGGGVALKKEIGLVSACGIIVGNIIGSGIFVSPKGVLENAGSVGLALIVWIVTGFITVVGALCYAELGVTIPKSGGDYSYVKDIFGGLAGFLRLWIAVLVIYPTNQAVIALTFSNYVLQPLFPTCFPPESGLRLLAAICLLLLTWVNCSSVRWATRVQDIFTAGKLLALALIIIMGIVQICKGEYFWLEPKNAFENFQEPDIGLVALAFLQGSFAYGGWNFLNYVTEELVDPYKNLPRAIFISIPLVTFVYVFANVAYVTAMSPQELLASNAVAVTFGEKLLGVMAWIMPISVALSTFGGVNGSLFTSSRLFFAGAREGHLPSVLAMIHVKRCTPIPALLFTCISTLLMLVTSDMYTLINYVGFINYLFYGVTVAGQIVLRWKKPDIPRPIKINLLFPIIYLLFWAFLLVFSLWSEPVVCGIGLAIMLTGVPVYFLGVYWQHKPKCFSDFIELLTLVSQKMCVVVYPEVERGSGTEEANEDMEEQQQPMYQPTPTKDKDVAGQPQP
Sequence (P08195 1-529 partner): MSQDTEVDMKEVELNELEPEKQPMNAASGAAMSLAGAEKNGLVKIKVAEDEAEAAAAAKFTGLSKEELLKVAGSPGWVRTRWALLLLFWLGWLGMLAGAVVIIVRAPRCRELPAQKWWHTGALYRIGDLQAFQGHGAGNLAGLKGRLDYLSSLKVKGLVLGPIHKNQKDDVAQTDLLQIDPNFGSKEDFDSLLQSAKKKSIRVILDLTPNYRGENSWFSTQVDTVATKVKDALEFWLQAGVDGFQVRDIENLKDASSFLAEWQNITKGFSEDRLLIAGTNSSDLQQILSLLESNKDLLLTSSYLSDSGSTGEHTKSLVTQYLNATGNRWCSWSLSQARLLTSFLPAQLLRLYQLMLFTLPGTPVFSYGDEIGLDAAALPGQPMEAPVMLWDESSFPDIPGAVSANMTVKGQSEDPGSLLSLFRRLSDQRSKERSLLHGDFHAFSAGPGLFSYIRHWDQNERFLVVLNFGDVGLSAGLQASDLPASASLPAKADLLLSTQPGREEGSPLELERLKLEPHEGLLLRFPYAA
test_protocol: Inhibition of amino acid uptake in human LAT2 stably expressing cell line
experimental_conditions: eight concentrations 0.1-1000 μM
measured_metric: IC50 (µM)
Lab book: enter the figure in µM, no units written.

Query: Could you share what IC50 was measured for NC(Cc1cc(OCCF)ccc1I)C(=O)O (stereo not shown) [Example 1] , tested on human LAT2 (Homo sapiens, UniProt Q9UHI5)?
Response: 84

====

system_tested: human LAT1 (Homo sapiens, UniProt Q01650)
Construct: expressed in transfected cells
Sequence (Q01650 whole entry, one chain of several): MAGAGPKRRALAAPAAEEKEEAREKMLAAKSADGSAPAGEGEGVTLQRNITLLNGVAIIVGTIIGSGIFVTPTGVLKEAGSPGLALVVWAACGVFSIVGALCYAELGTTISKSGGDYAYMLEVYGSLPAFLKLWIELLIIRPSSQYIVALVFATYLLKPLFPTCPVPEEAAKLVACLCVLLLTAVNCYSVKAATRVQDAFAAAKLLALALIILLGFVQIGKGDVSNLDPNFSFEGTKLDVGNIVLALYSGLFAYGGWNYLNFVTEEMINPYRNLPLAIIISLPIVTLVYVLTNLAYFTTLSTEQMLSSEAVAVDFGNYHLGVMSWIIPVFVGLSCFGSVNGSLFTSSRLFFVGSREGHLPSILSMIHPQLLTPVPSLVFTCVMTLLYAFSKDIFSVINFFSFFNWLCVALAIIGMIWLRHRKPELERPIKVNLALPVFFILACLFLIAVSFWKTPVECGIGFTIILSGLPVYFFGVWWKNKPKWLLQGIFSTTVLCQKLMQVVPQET
test_protocol: Inhibition of amino acid uptake in human LAT1 stably expressing cell line
Type: cell-based
experimental_conditions: compound at 30 μM; human LAT1 stably expressing HEK293 cell line; 30 µM
measured_metric: Percentage of inhibition of LAT1-mediated amino acid uptake (%)
Lab book: enter the figure in %, no units written.

Query: # input compound: NC(Cc1cc(OCCCCF)ccc1I)C(=O)O (single isomer, unassigned) [compound 25a] ; wanted: its Percentage of inhibition of LAT1-mediated amino acid uptake
Response: 37.7

Query: # input compound: NC(Cc1cc(OCCF)ccc1Br)C(=O)O (single isomer, unassigned) [compound 24a] ; wanted: its Percentage of inhibition of LAT1-mediated amino acid uptake
Response: 11.6

Query: # input compound: NC(Cc1cc(OCCF)ccc1C1CC1)C(=O)O (single isomer, unassigned) [compound 23a] ; wanted: its Percentage of inhibition of LAT1-mediated amino acid uptake
Response: 37.5

Query: # input compound: NC(Cc1cc(OCCOCCF)ccc1I)C(=O)O (single isomer, unassigned) [compound 27 (R)] ; wanted: its Percentage of inhibition of LAT1-mediated amino acid uptake
Response: 35.4

Query: # input compound: NC(Cc1cc(OCCF)ccc1Br)C(=O)O (single isomer, unassigned) [compound 24b] ; wanted: its Percentage of inhibition of LAT1-mediated amino acid uptake
Response: 85.1

Query: # input compound: NC(Cc1cc(OCCF)ccc1I)C(=O)O (single isomer, unassigned) [compound 10a] ; wanted: its Percentage of inhibition of LAT1-mediated amino acid uptake
Response: 33.8

Query: # input compound: NC(Cc1cc(OCCF)ccc1I)C(=O)O (single isomer, unassigned) [compound 10b] ; wanted: its Percentage of inhibition of LAT1-mediated amino acid uptake
Response: 91.2

Query: # input compound: NC(Cc1cc(OCCCCF)ccc1I)C(=O)O (single isomer, unassigned) [compound 25b] ; wanted: its Percentage of inhibition of LAT1-mediated amino acid uptake
Response: 94.1

Query: # input compound: NC(Cc1cc(OCCOCCF)ccc1I)C(=O)O (single isomer, unassigned) [compound 27 (S)] ; wanted: its Percentage of inhibition of LAT1-mediated amino acid uptake
Response: 89.5

Query: # input compound: NC(Cc1cc(OCCF)ccc1C1CC1)C(=O)O (single isomer, unassigned) [compound 23b] ; wanted: its Percentage of inhibition of LAT1-mediated amino acid uptake
Response: 94.5
